assay: PET hydrolysis, aromatic products released after 48 h (umol product/mg enzyme); higher = more PET depolymerization activity; conditions: substrate: cryPow; 60 °C; pH 6.5
MEASURED_QUANTITY: PET hydrolysis

INSERT INTO measurements (polymer_sequence, measured_quantity, measurement) VALUES
  ('DEIGQAPTSSNITGNGSFSVSTYNISSLVTGFGGGVAYYPSTAGRYPVVAVSPGFTARWSSISWIGPRLASWGFVVVGIETNSVYDQPASRGSQLLAALNWAVNSAPSAITSRADGSRRGVAGHSMGGGGTLEALAADTTGNVKAGVPLAPWNSDKTWNNVNEPVQIIGGESDTVAGVSSHSIPFYNSLGGSKSYVELNGASHFFPQTTNATTSRALVSWFKRWLNQDARFTPFTCGYGGTAVSDFRTNAC [ESM177]', 'PET hydrolysis', '< 3'),
  ('LNPYQRGPNPTDAILEASSGPYATSSISVPSIVSGFGGGRIYYPTTTADGTFGGIAISPGFTATWSSLSWLGPRLASHGFVVIGIETNTIYDQPTSRGQQLLAALDYLVNTSSVRTRVDSSRLAVAGHSMGGGGTLWAANSRPSLQAAIPLAPWNTDKSWSGVRVPTLIVGGQSDTVAPVATHSIPFYTSIPAASEKAYLELRSASHFFPQTVNTTVAVSMVSWLKRYVDDDTRYDPWLCPGPSGLSVSDYRDTCPA [TEP178]', 'PET hydrolysis', 3),
  ('AQENPYERGPAPTAQNITEDGPFAYATATVPAQSGFAGGAIYYPTDTSQGTFGAVAAVPGFLTPVDDVAWMGPRLASHGFVVFTIEPNSRFEFPSGRAAALKAGLTYLTQSSAVRDRVDPTRLAVAGHSMGGGAALEAALKDPNLKAAVALQPWHTGVNFSTVNVPSMIVGAENDPIASPASHAEPFYEQIPAASEKAYLNLAGVGHEVGGVVTNDTQSSMMLTWLKRYVDNDTRYEPFMCPGPSGSSVLEYRGTCPG [TEP170]', 'PET hydrolysis', '< 3');

----------
test: melting temperature (DSF); higher = more thermostable
MEASURED_QUANTITY: melting temperature (C)

INSERT INTO assay_data (polymer_sequence, measurement) VALUES
  ('SNPAPDTGSGDGSSSQYQIGPDPTVSFLEASSGPFSVRTSNVSSLVSGFGGGTIHYPTGVNRPMAAIVVIPGFVSAESSIDWWGPKLASYGFVVMTIGTNSGFDQPPSRARQINNALDYLVAQNTNSRSPVNGMIDTNRLGAMGWSMGGGGTLRVAEEGRIKAAIPLAPWDTTSFRSNRTPTLIFACGSDSIAPVRTHASPFYNQIPTSTPKIFIEINRGNHYCANGGNSNNATLGRLGVAWMKRFLDEDRRYSQFLCGPRHTSDRNISESRDTCNF [ESM186]', 53.8),
  ('ADNPYERGPDPTESSIEASRGPFAVSQTTVSSLAVTGFGGGTIYYPTDTSQGTFGAVAISPGYTADQSSIAWIGPRLASQGFVVFTIDTITRYDQPASRGDQLLAALDYLTQRSSVRGRIDSSRLGVAGHSMGGGGTLEAAEERPSLQAAVPLAPWNLQKNFSGVRVPTFIIGGESDTVAPVATHSEPFYTSLPSTLDKAYMELNNASHFFPNTPNTTMAKYMISWFKRFIDDDTRYDQFLCPNPSGLAIEEYRSTCPY [TEP089]', 44.2);

----------
experiment: PET hydrolysis, aromatic products released after 48 h (umol product/mg enzyme); higher = more PET depolymerization activity; conditions: substrate: aFilm; 60 °C; pH 7.5
Below: a set of entries, each annotated with reported PET hydrolysis.
MEASURED_QUANTITY: PET hydrolysis

INSERT INTO measurements (polymer_sequence, measurement) VALUES
  ('MAAANPYQRGPDPTLASVAATNGPFATAQMTVPPGNGFNGGYIYYPTDTSLGTWGAVAIVPGYTALFKNEEAWMGPRLASFGFVVIGIETNSRTDFDTARGTQLLAALDYLTQKSAVRNRVDPGRLGVIGHSMGGGGALVAATQRPSLKAAVGLAPFKPSGNLANDRVPTMFIAGNRDTVVTPSYLDGLYGSLPAATKKAYVQINGADHLFATKPNTVEMRTLIPWLKIFLDNDTRYSQFLCPTLLDKTGVSMYRGTCPLI [TEP109]', '< 3'),
  ('ATNPYQRGPAPTAESISAERGSFAVADSAVSADSVSGFGGGTVYYPTDTSAGKFGAVAIAPGFTANEWSLAWLGPRLASHGFVVFIIDTITTGDQPAQRGDELRAALSYLTTSSPVRDRVDPARLGVMGHSMGGGGALQAAEDDPSIRAVIPMTPYDLDSPSPKVTAPTLIIGAQDDTIAPVAYHARPFYESLTSARAKEYIELRNQSHFAPNYPNATIASASIAWLKRYIDDDQRYQPFACPAQVGSWLISDFRSAC [DP034]', '< 3'),
  ('ADNPYQRGPNPTQASIAANRGTFATAETSVGGGNGFGGAKIYYPTDTSQGTFGAIAVSPGYTATWAAEGAWMGHWLASFGFVVIGIDTINRNDREYARGTQLLAALDYLTQRSSVRTRVDPNRLAVMGHSMGGGGTISAALRRPTLKAAIGLAPYYPSQSTSGMQVPTMLLAGQNDGTSTPASIVTFYNDIPASTEKVYLELTGAGHGFPTSNNSVVTRKVIPWMKIFIDQDTRYTQFLCPLQDLTGIRTYRNSCPLLPNDPGTTFSLAGSASGKCADVPGRVQTNGTGLIIWTCNNAGNQQWTQTPAGELRIYGNTKCMDANASGQGARVTINTCNGGNSQKWTVNTNGTVTNAASGRCLDAGGTADNSPVVVNTCNAASGQTWTKRP [DP047]', '< 3'),
  ('MAENPYERGPAPTTSSIEASRGSFATSTVTVSRLAVSGFGGGTIYYPTSTTAGTFGAISIAPGFTALQSSIAWLGPRLASQGFVVFTIDTLTTSDQPDSRGRQLLAALDYLTQQSSVRSRIDSSRLGVVGHSMGGGGTLEAARSRPSLQAAIPLTGWNLTKTWSTVRVPTLVVGAQADTVAPVASHSIPFYNSLPSSLDKAYLELRGASHFAPNSSNTTIAKYTLSWLKRFIDNDTRYEQFLCPIPSTSLSISDYRGNCPHNG [TEP182]', '< 3');

----------
test: purified protein yield per well (BCA); higher = higher soluble expression
Below: a set of entries, each annotated with reported purified protein yield per well.
MEASURED_QUANTITY: purified protein yield per well (µg)

INSERT INTO assay_data (polymer_sequence, qualifier, measurement) VALUES
  ('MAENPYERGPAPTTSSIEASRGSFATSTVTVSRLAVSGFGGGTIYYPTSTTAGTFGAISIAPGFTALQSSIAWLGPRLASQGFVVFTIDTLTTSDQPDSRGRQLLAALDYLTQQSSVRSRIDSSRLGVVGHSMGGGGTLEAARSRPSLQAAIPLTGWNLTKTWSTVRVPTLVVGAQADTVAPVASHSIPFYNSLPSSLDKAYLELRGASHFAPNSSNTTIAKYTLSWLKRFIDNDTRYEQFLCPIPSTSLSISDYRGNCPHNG [TEP182]', '=', 290),
  ('ADNPYQRGPDPTPASVAAVNGPFATASVSVPAGYGFGGGMIYYPTDTSQGTFGGIAISPGYTALFSAELAWMGPWLASHGFVVIGIETNSRNDFDEARGTQLLAALDYLTQQSPVRTRVDPNRLAVSGHSMGGGGALNAAIRRPSLKAAVGLAPFLPSSNLANDRVPTMVFAGQQDTVVSPSYVTNLYNSLPATTESAYLEIAGGDHGFPVGRPNQVMIRTMLPFVKIFLDNDTRYSQFLCPLMDSTGVVTYRSTCPLLPPGLPTTPPTSTSSNPTVGPTTPSTTAPTTTPAPGGACTATYRTTNSWPGGFQGEVTITAGSSAINGWTVRWTLGSGQTISQVWNGEVSITGSTVSVRNAPYNGSLPASGSTTFGFLGGGSPSSPSLTCTSP [TEP165]', '=', 433),
  ('AGNPHQRGPDPTPQSIVAEKGPFEVATAPAPAGNGFGGGTIYYPTDTSQGTFAGIAISPGFFGPQFSIDWYGPRLASQGFVVIAITTNALWDFPSQRADQLLAALKYLKQDSPAKDRLDGGRLGVMGHSMGGGGTMEAVLKDHSLKAAIPLTGWGITADYSGVQTPTMIIGAQFDVVAPDESYSIPFYKSLRPDLDKQFLQLAGGTHFSPNLPNTTIAKYSISWLKRFLDDDTRYQQFLCPVQPDPELSAHEATCHS [DP001]', '<', 25),
  ('STPVHHAAARTAVPHHAPFAVRTTVVPKTAVKAFGGGVIYTPQDTGKPVLGAVVITPGFTDTNADEKATAELVASQGFVAFAIDTLDVYDLPDQRATEMLAAADYLTGTSAVKSEVSANDVALLGYSFGGGGTMQAAQSRPSIKAAVTLMPYDFPPADQPDAQYPAYPKLTVPTLVITGQKDDVAVPADFGKPAYDSIPAGTPKQYLELKGLDHYAGHRAPTPTIRTAVTAFLKRYLDGNSAYAKFICPAPKVGGPITASISSCPKG [ESM164]', '<', 25),
  ('QIGPDPTSSSLNATSGPFAVSTSTVAIASGFGGGTIYYPTTTGQYGVIAVSPGFTATQSSIAWLGRRLATHGFVVITIDTLTTLDQPASRATQLVAALNYVVNSATSTVRSRVDSSKRAVAGHSMGGGGALIAAQNNPGLKASLPLTPWNLSTNFSQNQVPTLIFGSDGDTVAPVAVHSRPFYASLPSSTYKAYAELNLATHFTPNSTNTPIGRYGVAWMKRFIDSDTRYSAFLCGAEHQAYATALVFDRYNQNCPY [ESM113]', '<', 25),
  ('ADTPYERGPNPSESLIEQRRGNYDIAQRSISRFSSDGFRNGTIYYPTDTSDGKFGVIAISPGYTAGESSIAWLGSRIASFGFVVVTINTTTRYDQPRQRSTQLLAALDHAMNDSVVGPLIDPERQAVMGHSMGGGGALQAAESRPEIDAVVALTPWNLKKNWDGVDAATLIIGAERDTVASVRTHSIPFYESLTQAEQRGYLELRGASHFAPNVSNTTIAKYSIAWMKRYLDNDDRYDQFLNPGPAVGYASGVSDYRLQ [DP003]', '=', 185);
